target entity: T1, DLL3 (target ligand immobilized on a SA sensor chip via streptavidin capture) (Homo sapiens (Human), UniProt Q9NYJ7 27-492, limits assumed)
T1 sequence: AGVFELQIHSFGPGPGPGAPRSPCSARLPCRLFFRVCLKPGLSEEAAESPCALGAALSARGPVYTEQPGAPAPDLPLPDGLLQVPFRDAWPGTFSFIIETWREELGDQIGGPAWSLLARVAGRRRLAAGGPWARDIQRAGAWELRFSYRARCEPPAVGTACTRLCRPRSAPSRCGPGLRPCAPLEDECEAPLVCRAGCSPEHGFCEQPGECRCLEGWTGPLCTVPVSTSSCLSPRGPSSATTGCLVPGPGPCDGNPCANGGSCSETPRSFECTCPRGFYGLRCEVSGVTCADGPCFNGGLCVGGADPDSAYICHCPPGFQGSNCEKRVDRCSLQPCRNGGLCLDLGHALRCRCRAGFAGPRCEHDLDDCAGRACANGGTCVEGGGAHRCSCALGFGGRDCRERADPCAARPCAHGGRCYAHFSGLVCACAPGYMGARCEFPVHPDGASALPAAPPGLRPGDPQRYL
experiment description: SPR, Biacore S200, target ligand on SA chip, 25 C, 1:1 fit
pKd: −log10 of the molar value. Bridges are numbered along the chain shown (N, C = ends).

binder | pKd
Ac-MWAICNNWHDCWP-NH2 (disulfide 5-11; SMILES CC[C@H](C)[C@H](NC(=O)[C@H](C)NC(=O)[C@H](Cc1c[nH]c2ccccc12)NC(=O)[C@H](CCSC)NC(C)=O)C(=O)N[C@H]1CSSC[C@@H](C(=O)N[C@@H](Cc2c[nH]c3ccccc23)C(=O)N2CCC[C@H]2C(N)=O)NC(=O)[C@H](CC(=O)O)NC(=O)[C@H](Cc2c[nH]cn2)NC(=O)[C@H](Cc2c[nH]c3ccccc23)NC(=O)[C@H](CC(N)=O)NC(=O)[C@H](CC(N)=O)NC1=O) [SEQ ID NO 87] | 7.28

Hey, just so you know, these numbers are from patent US20250049970A1.
